// data source = PubChem BioAssay

Assay: binders from COS7 lysate, DM2A8 probe, primary screen, torsin A project, cell lysate, small-molecule microarray, fluorescence 635/667 (AID 1065)
Conditions: higher = more signal, COS7 lysate expressing mutant human TOR1A
Param threshold (0.2) applies to composite z-score; output Yes when value >= threshold, No when value < threshold.

Answered cases to consult:
Textbook exercise: given the entry `O=C(N1CCOCC1)[C@@]1(Cc2ccccc2)COC(c2ccc(OCCCO)cc2)=N1` , state whether its composite z-score is greater than or equal to 0.2.
Yes

Could you tell me if the measured composite z-score of `COCCOC(=O)N1C(=O)[C@@]2(c3cc(C#CCCO)ccc31)[C@H](c1ccc(OCCO)cc1)N1[C@H](c3ccccc3)[C@H](c3ccccc3)OC(=O)[C@H]1[C@@H]2C(=O)N1CCCCCCC1` reaches 0.2 or more?
Yes

Check this molecule for composite z-score at or above 0.2: `CN(C)CCCC[C@@H]1NC(=O)[C@@H]2C[C@H](C(=O)NCCCCCCNC(=O)CS)[C@H](c3ccc(O)cc3)N2C1=O`
Yes

Reported composite z-score reaches at least 0.2 for `COCCOC(=O)N1C(=O)[C@@]2(c3ccccc31)[C@H](c1ccc(O)cc1)N1[C@H](c3ccccc3)[C@H](c3ccccc3)OC(=O)[C@H]1[C@@H]2C(=O)N1CCCCCCC1` ?
Yes

Given the entry `C[N+](C)(C)CCCC[C@@H]1NC(=O)[C@@H]2C[C@H](C(=O)NCc3ccc(F)cc3)[C@H](c3ccc(O)cc3)N2C1=O` , answer whether its composite z-score meets or surpasses 0.2.
No

Others:
hey, is composite z-score for this one >= 0.2? CC(C)=CCCC=C(C)C(O)C1C=CC2C(=O)N(c3ccccc3)C(=O)C2N1Nc1ccc(C#N)cc1 (configuration not stated)
No

Tell me whether composite z-score is at least 0.2 here: `C[N+](C)(C)CCCCNC(=O)[C@H]1C[C@H]2C(=O)N[C@@H](Cc3ccccc3)C(=O)N2[C@H]1c1cccc(OCCO)c1`
Yes

Evaluate `O=C1O[C@@H](c2ccccc2)[C@@H](c2ccccc2)N2[C@@H](c3ccc(OCCO)cc3)[C@]3(C(=O)Nc4ccc(C#CC5(O)CCCCCC5)cc43)[C@@H](C(=O)Nc3nc4ccccc4s3)[C@H]12` : composite z-score at minimum 0.2?
Yes

Test whether the molecule `CCOC(=O)C1=CC[C@@H](c2ccc(OC)cc2)N(S(=O)(=O)c2ccc(C)cc2)[C@H]1CC` records composite z-score of 0.2 or higher.
Yes
